Every entry's value here was drawn from paper PMC9352680.

Would you mind telling me the reported pKd of each entry?
Molecular target: T1, PUF4 RNA-binding domain (Saccharomyces cerevisiae, UniProt P25339 537-888)
T1 sequence: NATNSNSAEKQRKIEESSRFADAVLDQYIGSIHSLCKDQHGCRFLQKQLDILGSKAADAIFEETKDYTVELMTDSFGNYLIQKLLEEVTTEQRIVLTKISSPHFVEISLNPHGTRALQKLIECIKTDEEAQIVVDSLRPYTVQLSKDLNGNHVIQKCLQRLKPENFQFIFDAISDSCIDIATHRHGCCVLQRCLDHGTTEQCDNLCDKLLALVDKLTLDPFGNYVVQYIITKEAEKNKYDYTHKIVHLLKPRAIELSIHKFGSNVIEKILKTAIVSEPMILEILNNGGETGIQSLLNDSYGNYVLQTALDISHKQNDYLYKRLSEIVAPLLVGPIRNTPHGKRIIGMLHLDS
Test: Mg; RNA-MaP; 20 mM Na-HEPES pH 7.4, 30 mM KOAc, 0.75 mM MgCl2, 0.1% Tween-20, 5% glycerol, 0.1 mg/mL BSA, 2 mM DTT; 25 C; 0.0125-409.6 nM protein
Conditions: tags: N-His6-TEV cleaved; C-SNAP kept, Cy3B-labelled; label: tethered on chip by stalled RNA polymerase
One number for each entry, as −log10 of the molar value.

BINDER	pKd
Ic_S2_P5E.1_K5.1_C5.1_H5.1_A5.1_[T5G]_[A7C]_F5.1_[T8G]_[T9C]_[A10C]_T5.1 (ssRNA) RNA: UUUGAUUAAUAUGAUAUCGUUCUUUCUUGUAGUCGCCUUCUUUCUCGAUAUCAUAUUAAUCUUU	5.83
Ic_S2_P3E.1_K3.1_C3.1_H3.1_A3.1_[T5C]_[A6G]_F3.1_[T7G]_[A8C]_T3.1 (ssRNA) RNA: UUUGAUUAAUAUGAUAUCGUUCUUUCUUGUACGGCUUCUUUCUCGAUAUCAUAUUAAUCUUU	6.27
Id_ii_S2_P3E.3_K3.2_C3.2_[T-1C]_H3.2_A3.1_F3.1_T3.2_[T9A] (ssRNA) RNA: UUUGAUUAAUAUGAUAUCGUUCUUUCUCCUAUAUAUAAAUUCUUUCUCGAUAUCAUAUUAAUCUUU	6.60
Id_ii_S2_P4E.2_K4.1_C4.2_[C-2G]_[T-1C]_H4.1_A4.1_F4.1_T4.2_[G10C] (ssRNA) RNA: UUUGAUUAAUAUGAUAUCGUUCUUUCUGCUGUAUAUUACUUUCUUUCUCGAUAUCAUAUUAAUCUUU	9.18

API: the following record is the query input.
Entry Ia_S4_P3E.1_K3.1_C3.1_H3.1_[T1G]_A3.1_F3.1_T3.1 (ssRNA) RNA: UUUGACAACUGAUCGUUCUUUCUGGUAUAUAUUCUUUCUCGAUCAGUUGUCUUU has what pKd?
5.89
